experiment: amyloid nucleation score (Sup35N fusion, yeast selection) (log enrichment); library NNK3; higher = more nucleation; inactive = no reads after selection;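 further: zero at mode of non-aggregating sequences after 7 days selection at 30°C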
amyloid nucleation score vs -0.4: at or above is Criterion met, below is Criterion not met.

Past entries and their recorded results:
LPGINCARHK :: Criterion not met
TTMVIRNAMCNILNVVRKRR :: Criterion met

Task: hey, is amyloid nucleation score for this one >= -0.4? `TLCQREPG`
Output: Criterion met

Task: Now give it for `EVTSYVVFSFLIFTSMFHCK` too.
Output: Criterion not met

Task: Now give it for `GHMWFFVFY` too.
Output: Criterion met

Task: Now give it for `YVQIGFILIFISNYLSCESA` too.
Output: Criterion met

Task: Now give it for `FSVGFYFIYMTLKCGSCVQW` too.
Output: Criterion met

Task: Now give it for `GRAPYMWC` too.
Output: Criterion not met

Task: Now give it for `IDVKSLSWKMYRRLGTIPYT` too.
Output: Criterion met

Task: Now give it for `WTFNLFFNFRTFRLCCRKLV` too.
Output: Criterion met
